pIC50: −log10 of the molar value.
Published pIC50 for Tyrosine-protein kinase JAK3 (Homo sapiens), assembled from different documents, is shown next.

{"Molecule": "N#Cc1ccc2ncn(-c3nc(N4CC(F)(F)C4)c4[nH]c(=O)n(Cc5cccnc5)c4n3)c2c1", "pIC50": "> 7.00"}
{"Molecule": "NC(=O)c1cnc(Nc2ccc3c(c2)NC[C@H](O)CO3)nc1NC1CCOC1 (some centres unmarked)", "pIC50": "7.00 to 8.00"}
{"Molecule": "CNC(=O)c1n[nH]c2cc(-c3cc(F)c(O)cc3CC(F)(F)F)nc(NCc3ccccc3N(C)S(=O)(=O)c3cccc(O)c3)c12", "pIC50": 6.08}
{"Molecule": "Cc1cnc2nc1NCCCCCNC(=O)c1ccc(cc1)-c1cnc(F)c(c1)N2", "pIC50": "5.00 to 6.00"}
{"Molecule": "Cc1ccccc1-c1nc2cnc(-n3cnc4ccc(C#N)cc43)nc2n1C1CCOCC1", "pIC50": "6.00 to 7.00"}
{"Molecule": "CC(C)CN1CC(CC#N)(n2cc(-c3nc(-c4cnn(C)c4)cc4nccn34)cn2)C1", "pIC50": "< 6.00"}
{"Molecule": "C[C@@H](Nc1c(C(N)=O)cnn2cc(N3CCN(C)C3=O)cc12)C(C)(C)C", "pIC50": 8.23}
{"Molecule": "C=CC(=O)Nc1cccc(CNc2nc(Nc3cc(OC)c(N4CCN(C)CC4)cc3OC)ncc2Cl)c1", "pIC50": 6.77}
